Cited source for all entries: patent US9216984B2

study-system: human JAK1 (a.a. 837-1142) (Homo sapiens, UniProt P23458)
test-details: In vitro JAK kinase assay (HTRF, phosphorylation of biotinylated peptide)
Type: biochemical
run-parameters: at Km ATP (90 μM ATP for Jak1)
Counter-ions that a name gives are not always drawn.

compound: CCCCC(CC#N)n1cc(-c2ncnc3[nH]ccc23)cn1 (single isomer, unassigned) [Example 2, second peak (free base)]
study-system: human JAK1 (a.a. 837-1142) (Homo sapiens, UniProt P23458)
IC50 / nM: 0.57

compound: CCCCC(CC#N)n1cc(-c2ncnc3[nH]ccc23)cn1 (single isomer, unassigned) [Example 2, first peak (free base)]
study-system: human JAK1 (a.a. 837-1142) (Homo sapiens, UniProt P23458)
IC50 / nM: 1.8

compound: CCCCC(CC#N)n1cc(-c2ncnc3[nH]ccc23)cn1 (single isomer, unassigned) [Example 2, second peak (phosphate salt)]
study-system: human JAK1 (a.a. 837-1142) (Homo sapiens, UniProt P23458)
IC50 / nM: 2
